assay: endothelial E-selectin upregulation by compounds – imaging, HUVEC, cherry-picked samples, dose response (AID 977605); settings: HUVEC E-selectin immunostaining, at 19.5 µM (top of the series), percent of TNF-alpha response over vehicle;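 also: signal is the share of imaged cells scored positive for E-selectin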
# activation annotations
Outcome measure: activation (%)

Compound: COc1ccccc1-c1nnc(NC(=O)CSc2nncn2C)s1
Outcome measure: activation
Quantitative readout: -0.056
//
Compound: C[C@H]1CN([C@@H](C)CO)C(=O)c2cccc(NC(=O)Nc3cccc4ccccc34)c2O[C@H]1CN(C)Cc1ccc(-c2ccccc2)cc1
Outcome measure: activation
Quantitative readout: 0.067
//
Compound: C[C@@H]1CN([C@H](C)CO)C(=O)c2cc(C3=CCCC3)cnc2O[C@@H]1CN(C)C(=O)Nc1ccccc1
Outcome measure: activation
Quantitative readout: 0.119
//
Compound: C[C@@H]1CN([C@H](C)CO)C(=O)Cc2cc(NC(=O)c3ccncc3)ccc2O[C@H]1CN(C)S(C)(=O)=O
Outcome measure: activation
Quantitative readout: -0.058
//
Compound: COc1ccc(Nc2n[nH]c(N)c2C(N)=O)cc1
Outcome measure: activation
Quantitative readout: -0.163
//
Compound: O=C(NCc1ccc(F)cc1)c1cc(C2CCCCN2C(=O)CCCc2ccccc2)on1 (configuration not stated)
Outcome measure: activation
Quantitative readout: -0.164
//
Compound: O=C(NC1CCCC1)C(c1ccc(F)cc1)N(C(=O)c1csnn1)c1ccccc1 (configuration not stated)
Outcome measure: activation
Quantitative readout: 0.654
//
Compound: COc1ncnc(OC)c1S(=O)(=O)NCc1ccccc1
Outcome measure: activation
Quantitative readout: -0.033
//
Compound: C[C@H](CO)N1C[C@H](C)[C@@H](CN(C)S(=O)(=O)c2cn(C)cn2)Oc2ccc(N(C)C)cc2C1=O
Outcome measure: activation
Quantitative readout: 0.037
//
Compound: C/C=C/c1ccc2c(c1)O[C@H](CN(C)C(=O)CC)[C@@H](C)CN([C@H](C)CO)S2(=O)=O
Outcome measure: activation
Quantitative readout: 25.5
//
Compound: CC(C)CC#Cc1ccc2c(c1)O[C@H](CN(C)Cc1ccncc1)[C@H](C)CN([C@@H](C)CO)S2(=O)=O
Outcome measure: activation
Quantitative readout: -0.038
//
Compound: Cc1ccc(SCc2cc(=O)n(C)[nH]2)cc1
Outcome measure: activation
Quantitative readout: 0.221
//
Compound: C[C@H](CO)N1C[C@H](C)[C@H](CN(C)C(=O)Nc2ccc(C(F)(F)F)cc2)Oc2ccc(NC(=O)Cn3cnnn3)cc2CC1=O
Outcome measure: activation
Quantitative readout: 0.063
//
Compound: COc1ccc(S(=O)(=O)N(C)C[C@@H]2Oc3ccc(NS(=O)(=O)c4c(C)noc4C)cc3C(=O)N([C@@H](C)CO)C[C@H]2C)cc1
Outcome measure: activation
Quantitative readout: -0.096
//
Compound: C[C@@H]1CN([C@H](C)CO)C(=O)c2cc(NC(=O)Cc3ccccc3)ccc2O[C@H]1CN(C)C(=O)NC1CCCCC1
Outcome measure: activation
Quantitative readout: 0.096
//
Compound: C[C@H]1CN([C@@H](C)CO)C(=O)Cc2cc(NC(=O)C3CC3)ccc2O[C@@H]1CN(C)S(=O)(=O)c1cccs1
Outcome measure: activation
Quantitative readout: -0.038
//
Compound: COc1ccc(S(=O)(=O)N(C)C[C@H]2Oc3ccc(NS(=O)(=O)c4c(C)noc4C)cc3C(=O)N([C@@H](C)CO)C[C@H]2C)cc1
Outcome measure: activation
Quantitative readout: 0.307

From: PubChem BioAssay AID977605
